System: OVCAR-8 ovarian
METHOD SUMMARY: NCI tumour cell line growth inhibition, 48 h
RECORDED METRIC: TGI

Answered cases to consult:
Notebook: "COc1ccc(-c2cc(-c3ccc(O)cc3)nc3nc(=S)[nH]c(N)c23)cc1" , TGI read as 43.1 µM

Notebook: "O=C(Nc1ncc(Cc2ccccc2)s1)c1ccc2c(c1)OCCO2" , TGI read as > 100 µM

Further cases:
Notebook: "COc1nc(/C=N/NC(N)=S)nc(OC)n1" , TGI read as > 100 µM

Notebook: COc1cc(C2SCC(=O)N2c2ccc(-c3ccc(-n4c(-c5ccccc5)nc5ccccc5c4=O)cc3)cc2)ccc1O (stereo not given) , TGI read as > 100 µM

Notebook: "O=C(CCc1nnc2s/c(=C\c3ccc4c(c3)OCO4)c(=O)n12)Nc1cc(Cl)ccc1Cl" , TGI read as > 100 µM

###

Test system: MALME-3M melanoma
METHOD SUMMARY: NCI tumour cell line growth inhibition, 48 h
RECORDED METRIC: TGI

Answered cases to consult:
Notebook: "COC(=O)C1=C(C(=O)OC)SC(=C2c3ccsc3-c3sccc32)S1" , TGI read as > 100 µM

Notebook: "Cc1ccccc1N=Cc1ccc(N(CCC#N)S(=O)(=O)c2ccccc2)cc1" , TGI read as > 100 µM

Notebook: CC1CC(=O)N2CCCNC2=C1C#N (stereo unspecified) , TGI read as > 100 µM

Notebook: "COC(=O)c1ccccc1/C=C1\Cc2cc3c(cc2C1=O)CCC3" , TGI read as > 100 µM

Notebook: "CCOC(=O)NC(=O)c1cn(CCCCCOC(=O)NCCCCCCNC(=O)OCCCCCn2cc(C(=O)NC(=O)OCC)c(=O)[nH]c2=O)c(=O)[nH]c1=O" , TGI read as > 100 µM

Further cases:
Notebook: CCOC(=O)C1c2[nH]c3ccccc3c2CCN1C(=O)c1ccco1 (stereo unspecified) , TGI read as > 10 µM

Notebook: "Oc1ccc2ccccc2c1-c1c(Nc2ccccc2)ccc2ccccc12" , TGI read as 25 µM

Notebook: "COc1ccc(NC(=O)CC/C(CC(=O)c2ccccc2Cl)=N\Nc2nnc(C)n2N)cc1" , TGI read as > 100 µM

Notebook: "NC(=O)Cc1ncn(-c2ccccc2)n1" , TGI read as > 100 µM

Notebook: "Fc1ccc(CNc2c3ccccc3nc3ccccc23)cc1" , TGI read as 5.48 µM

Notebook: O=C1ON(Cc2ccccc2)C(c2ccccc2)N1c1ccccc1 (stereo unspecified) , TGI read as > 100 µM

###

Tested on: T-47D breast
METHOD SUMMARY: NCI tumour cell line growth inhibition, 48 h
Listing of entries alongside the reported TGI.

Notebook: "Oc1ccc(-c2c3ccccc3c(-c3ccc(OCCBr)cc3)c3ccccc23)cc1" , TGI read as > 100 µM

Further cases:
Notebook: O=c1[nH]c(=O)n(C2CC(O)C(COP(=O)(O)OC3CC(n4cc(F)c(=O)[nH]c4=O)OC3COP(=O)(O)OC3CC(n4cc(F)c(=O)[nH]c4=O)OC3COP(=O)(O)OC3CC(n4cc(F)c(=O)[nH]c4=O)OC3COP(=O)(O)OC3CC(n4cc(F)c(=O)[nH]c4=O)OC3COP(=O)(O)OC3CC(n4cc(F)c(=O)[nH]c4=O)OC3COP(=O)(O)OC3CC(n4cc(F)c(=O)[nH]c4=O)OC3COP(=O)(O)OC3CC(n4cc(F)c(=O)[nH]c4=O)OC3COP(=O)(O)OC3CC(n4cc(F)c(=O)[nH]c4=O)OC3COP(=O)(O)OC3CC(n4cc(F)c(=O)[nH]c4=O)OC3CO)O2)cc1F (centres undefined) , TGI read as > 50 µM

Notebook: CC(=O)Nc1ccc2c3c(cc(O)c2c1)N(C(=O)CCCC(=O)Nc1ccc2c4c(cc(O)c2c1)N(C(=O)OC(C)(C)C)CC4CCl)CC3CCl (centres undefined) , TGI read as 12.7 µM

Notebook: CC1=NN(c2nc(N)nc(C(C)Sc3cc(Cl)c(C)cc3S(N)(=O)=O)n2)C(C)(C)C1 (centres undefined) , TGI read as > 10 µM

Notebook: "CS(=O)(=O)N1CCN(Cc2cc3nc(-c4cccc5[nH]ncc45)nc(N4CCOCC4)c3s2)CC1" , TGI read as 0.505 µM

Notebook: COC(=O)[C@@]12CC[C@]1(C(=O)OC)C1C(C)=CC(=O)O[C@@]12C (some centres undefined) , TGI read as > 100 µM

Notebook: "COc1ccc(Nc2c3c4c(cccc4[nH]c2=O)C(=O)c2ccccc2-3)cc1" , TGI read as > 100 µM

Notebook: "COc1ccccc1CNCCCN1C(=O)c2ccc3c4c(ccc(c24)C1=O)C(=O)N(CCCNCCCCNCCCCN)C3=O" , TGI read as 3.14 µM

Notebook: "C=C1C(=O)O[C@H]2[C@H]1CC/C(C=Nc1ccc(C(F)(F)F)cc1N)=C\CC[C@@]1(C)O[C@@H]21" , TGI read as 22.1 µM

Notebook: "CN(C)CCSC(=Nc1ccccc1)N1C=COC=C1" , TGI read as 74.4 µM

Notebook: "CC1=Nc2nc3ccccc3n2C(C)(C)C1" , TGI read as > 100 µM

Notebook: "C(=N/Nc1ncnc2nc[nH]c12)/c1ccccn1" , TGI read as > 100 µM

Notebook: C=C[C@@]1(C)CC2CC[C@]3(C)C(C)=CC(=O)CC3[C@]2(C)CC1O (some centres undefined) , TGI read as > 100 µM

Notebook: COc1ccc(C2=NN(C(=O)c3ccccc3)C(O)(c3cc(F)c(Cl)cc3Cl)C2)cc1OC (centres undefined) , TGI read as > 100 µM
